molecular target: human JAK1 (Homo sapiens, UniProt P23458); construct: catalytic domain, amino acids 866-1154; catalog number PV4774; test: JAK1 inhibition assay (polyGT substrate / Ulight-JAK1 peptide); conditions: recombinant human JAK1 catalytic domain; polyGT or Ulight-JAK1 peptide assay
Sequence (P23458 866-1154): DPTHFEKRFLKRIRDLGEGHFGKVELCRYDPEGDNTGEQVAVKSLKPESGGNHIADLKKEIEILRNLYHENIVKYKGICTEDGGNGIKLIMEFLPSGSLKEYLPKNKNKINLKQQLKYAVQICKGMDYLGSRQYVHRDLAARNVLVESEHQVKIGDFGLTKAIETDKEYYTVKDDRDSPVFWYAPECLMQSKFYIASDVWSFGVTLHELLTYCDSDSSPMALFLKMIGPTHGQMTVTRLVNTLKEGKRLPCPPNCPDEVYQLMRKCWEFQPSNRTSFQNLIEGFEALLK
Assay Metric: IC50

>>> print(df.to_string())
                                item_smiles  observed_measurement
0  CCc1cc(C(=O)NCc2ccccc2)ccc1N(C)c1cc2c(cn1)ncn2C        0.01 to 100 nM
1  COc1cc(S(=O)(=O)N2CCOCC2)ccc1N(C)c1cc2c(cn1)ncn2C             > 1000 nM
2  CCc1cc(C2CN(C(=O)COC)C2)ccc1N(C)c1cc2c(cn1)ncn2C        0.01 to 100 nM
3  CCc1cc(CNS(C)(=O)=O)c(F)cc1N(C)c1cc2c(cn1)ncn2C        0.01 to 100 nM
